Numbers sourced from the Human Domainome abundance scans (Beltran et al. 2025).

B1: Tyrosine-protein kinase BTK, residues 215 to 273; numbered along this chain, Q06187 (parent)
chain: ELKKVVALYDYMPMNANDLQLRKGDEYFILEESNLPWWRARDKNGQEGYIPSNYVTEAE

- Variants of: B1
- assay remarks: abundance fitness (aPCA) (normalised: wild type 0, dead -1); higher = more abundant; growth selection in yeast, the domain comes from the species named
- recorded conditions: Homo sapiens
Outcome: rule met for abundance fitness of at least -0.06; rule not met for anything lower.

Prompt: Hi team, for `V55N` , is the recorded abundance fitness at or above -0.06?
Completion: rule not met

Prompt: Form field: abundance fitness at least -0.06? Entry: `G45E`
Completion: rule not met

Prompt: hey, is abundance fitness for this one >= -0.06? `D18A`
Completion: rule met

Prompt: Reported abundance fitness at or above -0.06? `A40V`
Completion: rule met

Prompt: Identify whether the reported abundance fitness of the following variant is -0.06 or greater: `Q46A`
Completion: rule met

Prompt: # bool: abundance fitness of `A40Y` >= -0.06
Completion: rule not met

Prompt: Is abundance fitness at least -0.06? Consider `E31C`
Completion: rule met

Prompt: Please indicate if the recorded abundance fitness for `Q20L` meets or exceeds -0.06.
Completion: rule met

Prompt: Test whether the variant `A16V` records abundance fitness of -0.06 or higher.
Completion: rule met

Prompt: Answer whether abundance fitness of `F28I` is greater than or equal to -0.06.
Completion: rule met

Prompt: Check the entry `D18K` : does abundance fitness equal or exceed -0.06?
Completion: rule met

Prompt: Tell me whether abundance fitness is at least -0.06 here: `D42P`
Completion: rule not met

Prompt: Quick check: does `L19H` have abundance fitness greater than or equal to -0.06?
Completion: rule not met

Prompt: Determine whether measured abundance fitness meets or exceeds -0.06 for `P51M`
Completion: rule not met

Prompt: Does `R22L` have a reported abundance fitness of at least -0.06?
Completion: rule met

Prompt: Identify whether the reported abundance fitness of the following variant is -0.06 or greater: `Q20A`
Completion: rule met

Prompt: Would you say `P36Y` shows abundance fitness at minimum -0.06?
Completion: rule not met

Prompt: Assess whether reported abundance fitness for `S33M` sits at -0.06 or higher.
Completion: rule met

Prompt: Evaluate `Y54K` : abundance fitness at minimum -0.06?
Completion: rule not met

Prompt: Say whether `Y49F` shows abundance fitness of -0.06 or more.
Completion: rule met

Prompt: Item `I50Q` with abundance fitness of -0.06 or above?
Completion: rule not met

Prompt: abundance fitness >= -0.06 for `W38H` ?
Completion: rule met
